# EC50 values compiled below
test system: Trypanosoma brucei brucei; assay: Antitrypanosomal activity against diminazene-, pentamidine-, and melaminophenyl arsenical-resistant HAPT1-deficient Trypanosoma brucei brucei B48 after 3 days by alamar blue assay; format: functional, organism-based
Please give a number only; it is taken to be in nM.

Use the examples below as a reference point.
smilesString	measuredQuantity	resultNumber
Cc1ccc(C[P+](c2ccccc2)(c2ccccc2)c2ccccc2)cc1.[Br-]	EC50	22
Cc1ccc([P+](Cc2ccc(C(=O)c3ccc(C[P+](c4ccc(C)cc4)(c4ccc(C)cc4)c4ccc(C)cc4)cc3)cc2)(c2ccc(C)cc2)c2ccc(C)cc2)cc1.[Cl-].[Cl-]	EC50	73
Cc1ccc([P+](Cc2ccc(CCCc3ccc(C[P+](c4ccc(C)cc4)(c4ccc(C)cc4)c4ccc(C)cc4)cc3)cc2)(c2ccc(C)cc2)c2ccc(C)cc2)cc1.[Cl-].[Cl-]	EC50	62
Cc1ccc([P+](Cc2ccc(CCc3ccc(C[P+](c4ccc(C)cc4)(c4ccc(C)cc4)c4ccc(C)cc4)cc3)cc2)(c2ccc(C)cc2)c2ccc(C)cc2)cc1.[Cl-].[Cl-]	EC50	45

Proceeding to the next molecule to report its EC50.
Ask: What measured EC50 goes with Cc1ccc([P+](Cc2ccc(CCc3ccc(C[P+](c4ccc(C)cc4)(c4ccc(C)cc4)c4ccc(C)cc4)cc3)cc2)(c2ccc(C)cc2)c2ccc(C)cc2)cc1.[Br-].[Br-] ?
Reply: 150
